Please respond with reported growth for every item in the list.
System: RXF 393 renal
measurement.protocol: NCI-60 one-dose screen, 48 h (100 = growth as untreated, 0 = no growth, -100 = all killed)
conditions.used: 10 µM unless noted
The panel holds about 83,000 compounds, 20% with a hit somewhere; the sample as a whole holds those more often.
Answers are plain numbers, in %.

Answered cases to consult:
compound=CC1=C(CCCOC(=O)[C@H](N)CC(C)C)C2=C(C)C3(CC3)[C@@](C)(O)C(=O)C2=C1 system_name="RXF 393 renal" measure_unit=% assay_value=-74.7
compound=CC(=O)OC[C@]1(C)C=C2C(=O)[C@](C)(O)C3(CC3)C(C)=C2[C@H]1OC(=O)N(C)CCN(C)C(=O)OC(C)(C)C system_name="RXF 393 renal" measure_unit=% assay_value=-68.2
compound="CC1[C@H](C)OC(=O)CC(O)CC(O)CC(O)CCC(O)C(O)C[C@]2(O)CC(O)C(C(=O)O)C(CC(OC3O[C@H](C)[C@@H](O)[C@H](N)[C@@H]3O)/C=C/C=C/C=C/C=C/CC/C=C/C=C/[C@H](C)[C@H]1O)O2 (some centres undefined)" system_name="RXF 393 renal" measure_unit=% assay_value=107

Let us move to another entry and its growth.
Indicate its recorded growth; the compound in question is Nc1c(F)cc(-c2nc3cc(F)ccc3[se]2)cc1Br
74.8

---

System: NCI-H23 lung
measurement.protocol: NCI-60 one-dose screen, 48 h
conditions.used: 10 µM unless noted
About 83,000 compounds went through this panel and 20% of them were active in at least one assay; those are over-represented in the sample as a whole. Activity calls are given as the source filed them. The calls were made as follows: active = growth percent below 10; inactive = the rest.
Hello, when you answer, please use one of the following outcomes: t (active), f (inactive)

compound=CCOC(=O)[C@@H](C)C[C@H](Cc1ccccc1)NC(=O)c1csc([C@@H](C[C@H](C(C)C)N(C)C(=O)[C@H](CCC(C)C)NC(=O)[C@H]2CCCCN2C)OC(C)=O)n1 assigned_category=f

Let us examine a further case.
Recorded test call requested for N#Cc1c(Br)n(C2OC(CO)C(O)C2O)c2ncnc(N)c12 (centres undefined)
f

---

Tested on: SW-620 colon
measurement.protocol: NCI-60 one-dose screen, 48 h
conditions.used: 10 µM unless noted
About 83,000 compounds went through this panel and 20% of them were active in at least one assay; those are over-represented in the sample as a whole. Active and inactive are the calls of the source. How the source made its calls: active means growth percent below 10; inactive means the rest.
Hello, when you answer, please use one of the following outcomes: yes (1) = active, no (0) = inactive

compound="Clc1ccc(COC(Cn2ccnc2)c2ccc(Cl)cc2Cl)cc1 (centres undefined)" system_name="SW-620 colon" assigned_category="no (0)"

Recorded test call requested for COc1cc2ncnc(Nc3ccc(F)c(Cl)c3)c2cc1OCC(=O)N1CCN(C)CC1
no (0)

Recorded test call requested for O=C(CCCCCNC1=CC(=O)c2ccccc2C1=O)NCCC[Te]c1ccccc1
yes (1)

Recorded test call requested for OCCNC(Cc1ccccc1)c1ccc2c(c1)OCO2 (centres undefined)
no (0)

Recorded test call requested for COc1ccc(/C=C\c2cc(OC)c(OC)c(OC)c2)cc1NC(=O)/C=C/c1cc(OC)c(OC)c(OC)c1
no (0)

Recorded test call requested for CCOP(=O)(NC[C@H]1O[C@](O)(CO)[C@@H](O)[C@@H]1O)OCC
no (0)

Recorded test call requested for CC[C@]12C=CCN3CC[C@]4(C(=C(C(=O)OC)C1)Nc1cc(OC)c(OC(C)=O)cc14)[C@@H]32
no (0)

Recorded test call requested for O=C(CCCCCCC(=O)Nc1ccc(N(CCCl)CCCl)cc1)NO
no (0)

Recorded test call requested for COC(=O)[C@@H](C)C[C@H](Cc1ccccc1)NC(=O)c1csc([C@@H](C[C@H](C(C)C)N(C)C(=O)[C@@H](NC(=O)[C@H]2CCCN2C)C2CC2)OC(C)=O)n1
no (0)
